target: MINK1/MAP4K6 (Homo sapiens, UniProt Q8N4C8); test: HTRF Transcreener ADP kinase assay
Sequence (Q8N4C8 whole entry): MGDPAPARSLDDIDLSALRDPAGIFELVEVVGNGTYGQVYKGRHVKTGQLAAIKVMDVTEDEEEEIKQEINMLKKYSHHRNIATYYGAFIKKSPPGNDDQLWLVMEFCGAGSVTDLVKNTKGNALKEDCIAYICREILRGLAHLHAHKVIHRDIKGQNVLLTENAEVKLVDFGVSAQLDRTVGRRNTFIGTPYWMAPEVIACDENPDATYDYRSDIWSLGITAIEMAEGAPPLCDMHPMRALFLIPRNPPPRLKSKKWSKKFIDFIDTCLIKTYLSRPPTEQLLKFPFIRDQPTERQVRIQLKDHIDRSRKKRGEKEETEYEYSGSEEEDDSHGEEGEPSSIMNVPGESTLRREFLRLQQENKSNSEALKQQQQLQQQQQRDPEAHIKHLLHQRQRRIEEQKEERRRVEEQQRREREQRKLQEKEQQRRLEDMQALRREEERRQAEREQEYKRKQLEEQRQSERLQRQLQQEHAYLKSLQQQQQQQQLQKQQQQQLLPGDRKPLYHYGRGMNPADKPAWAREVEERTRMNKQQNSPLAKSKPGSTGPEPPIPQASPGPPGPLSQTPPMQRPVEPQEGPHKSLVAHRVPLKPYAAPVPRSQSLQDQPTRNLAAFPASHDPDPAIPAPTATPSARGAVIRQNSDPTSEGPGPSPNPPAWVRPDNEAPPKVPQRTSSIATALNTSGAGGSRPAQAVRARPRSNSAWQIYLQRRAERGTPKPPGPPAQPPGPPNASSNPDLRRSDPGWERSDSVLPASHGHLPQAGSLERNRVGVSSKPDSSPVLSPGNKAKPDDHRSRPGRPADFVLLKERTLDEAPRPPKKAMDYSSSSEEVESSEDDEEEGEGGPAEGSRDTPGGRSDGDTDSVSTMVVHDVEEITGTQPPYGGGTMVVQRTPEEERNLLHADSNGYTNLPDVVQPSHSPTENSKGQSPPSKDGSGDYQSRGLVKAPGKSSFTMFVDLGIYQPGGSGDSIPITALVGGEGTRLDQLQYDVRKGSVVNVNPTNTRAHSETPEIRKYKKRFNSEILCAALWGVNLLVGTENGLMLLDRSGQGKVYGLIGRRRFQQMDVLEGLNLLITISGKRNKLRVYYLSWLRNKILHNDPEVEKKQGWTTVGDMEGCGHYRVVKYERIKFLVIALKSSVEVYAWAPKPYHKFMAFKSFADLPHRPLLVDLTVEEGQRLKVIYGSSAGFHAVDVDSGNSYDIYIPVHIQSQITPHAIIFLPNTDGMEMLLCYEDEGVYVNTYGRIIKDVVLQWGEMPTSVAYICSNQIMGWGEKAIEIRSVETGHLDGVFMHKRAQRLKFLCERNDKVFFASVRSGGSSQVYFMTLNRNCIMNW
pIC50: −log10 of the molar value.
# pIC50 per record follows
measuredQuantity: pIC50

* Oc1ncnc2c1c(-c1ccccc1)cn2-c1ccccc1 | 7.42
* COCCOc1ccc(-c2cn(-c3ccccc3)c3nc[nH]c(=O)c23)cc1 | 8.18

* * *

biological target: PDK1 (Homo sapiens, UniProt O15530); construct: lines 1-140) and Reaction Biology; test: Dundee kinase panel; assay type: biochemical; settings: read-out: residual activity
Sequence (O15530 whole entry): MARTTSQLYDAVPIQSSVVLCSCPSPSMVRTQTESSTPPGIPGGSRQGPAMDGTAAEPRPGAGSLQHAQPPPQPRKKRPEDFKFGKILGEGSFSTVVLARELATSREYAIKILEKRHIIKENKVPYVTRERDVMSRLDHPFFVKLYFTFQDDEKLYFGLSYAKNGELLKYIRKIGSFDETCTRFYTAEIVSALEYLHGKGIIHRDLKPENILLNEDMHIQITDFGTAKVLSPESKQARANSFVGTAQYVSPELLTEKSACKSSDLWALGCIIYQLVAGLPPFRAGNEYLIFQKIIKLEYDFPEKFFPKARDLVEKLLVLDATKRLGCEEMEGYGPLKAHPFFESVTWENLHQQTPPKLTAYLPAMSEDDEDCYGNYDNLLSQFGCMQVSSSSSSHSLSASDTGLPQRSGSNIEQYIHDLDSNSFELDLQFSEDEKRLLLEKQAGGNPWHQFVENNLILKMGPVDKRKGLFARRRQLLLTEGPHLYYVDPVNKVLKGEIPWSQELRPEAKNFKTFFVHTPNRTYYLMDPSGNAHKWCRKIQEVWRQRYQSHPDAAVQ
measuredQuantity: remaining activity at 1 µM (%)

• O=C1Cc2c([nH]c3ccc(Br)cc23)-c2ccccc2N1 = 64
• Oc1ncnc2c1c(-c1ccccc1)cn2-c1ccccc1 = 103
• COCCOc1ccc(-c2cn(-c3ccccc3)c3nc[nH]c(=O)c23)cc1 = 89
• O=C1Nc2ccc(I)cc2/C1=C/c1cc(Br)c(O)c(Br)c1 = 22

* * *

molecular target: MNK2 (Homo sapiens); construct: lines 1-140) and Reaction Biology; experiment: Dundee kinase panel; assay type: biochemical; settings: read-out: residual activity
Sequence (Q9HBH9 whole entry): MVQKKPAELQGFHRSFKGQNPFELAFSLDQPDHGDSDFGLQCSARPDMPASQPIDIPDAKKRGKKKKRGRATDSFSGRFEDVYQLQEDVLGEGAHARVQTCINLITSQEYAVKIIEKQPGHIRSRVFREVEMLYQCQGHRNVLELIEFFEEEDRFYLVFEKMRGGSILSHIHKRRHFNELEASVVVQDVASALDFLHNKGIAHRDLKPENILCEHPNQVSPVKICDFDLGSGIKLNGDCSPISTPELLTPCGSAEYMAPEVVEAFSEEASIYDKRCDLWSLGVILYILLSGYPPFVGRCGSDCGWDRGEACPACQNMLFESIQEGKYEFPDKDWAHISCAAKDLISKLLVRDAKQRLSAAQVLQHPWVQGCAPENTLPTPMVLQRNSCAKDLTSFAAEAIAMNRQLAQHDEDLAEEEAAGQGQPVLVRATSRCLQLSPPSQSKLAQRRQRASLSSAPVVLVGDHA
# remaining activity at 1 µM per record follows
measuredQuantity: remaining activity at 1 µM (%)

- COCCOc1ccc(-c2cn(-c3ccccc3)c3nc[nH]c(=O)c23)cc1: 111
- O=C1Cc2c([nH]c3ccc(Br)cc23)-c2ccccc2N1: 125
- O=C1Nc2ccc(I)cc2/C1=C/c1cc(Br)c(O)c(Br)c1: 95
- Oc1ncnc2c1c(-c1ccccc1)cn2-c1ccccc1: 109

* * *

# remaining activity at 1 µM per record follows
target: TTBK1 (Homo sapiens); construct: lines 1-140) and Reaction Biology; test: Dundee kinase panel; format: biochemical; details: read-out: residual activity
Sequence (Q5TCY1 whole entry): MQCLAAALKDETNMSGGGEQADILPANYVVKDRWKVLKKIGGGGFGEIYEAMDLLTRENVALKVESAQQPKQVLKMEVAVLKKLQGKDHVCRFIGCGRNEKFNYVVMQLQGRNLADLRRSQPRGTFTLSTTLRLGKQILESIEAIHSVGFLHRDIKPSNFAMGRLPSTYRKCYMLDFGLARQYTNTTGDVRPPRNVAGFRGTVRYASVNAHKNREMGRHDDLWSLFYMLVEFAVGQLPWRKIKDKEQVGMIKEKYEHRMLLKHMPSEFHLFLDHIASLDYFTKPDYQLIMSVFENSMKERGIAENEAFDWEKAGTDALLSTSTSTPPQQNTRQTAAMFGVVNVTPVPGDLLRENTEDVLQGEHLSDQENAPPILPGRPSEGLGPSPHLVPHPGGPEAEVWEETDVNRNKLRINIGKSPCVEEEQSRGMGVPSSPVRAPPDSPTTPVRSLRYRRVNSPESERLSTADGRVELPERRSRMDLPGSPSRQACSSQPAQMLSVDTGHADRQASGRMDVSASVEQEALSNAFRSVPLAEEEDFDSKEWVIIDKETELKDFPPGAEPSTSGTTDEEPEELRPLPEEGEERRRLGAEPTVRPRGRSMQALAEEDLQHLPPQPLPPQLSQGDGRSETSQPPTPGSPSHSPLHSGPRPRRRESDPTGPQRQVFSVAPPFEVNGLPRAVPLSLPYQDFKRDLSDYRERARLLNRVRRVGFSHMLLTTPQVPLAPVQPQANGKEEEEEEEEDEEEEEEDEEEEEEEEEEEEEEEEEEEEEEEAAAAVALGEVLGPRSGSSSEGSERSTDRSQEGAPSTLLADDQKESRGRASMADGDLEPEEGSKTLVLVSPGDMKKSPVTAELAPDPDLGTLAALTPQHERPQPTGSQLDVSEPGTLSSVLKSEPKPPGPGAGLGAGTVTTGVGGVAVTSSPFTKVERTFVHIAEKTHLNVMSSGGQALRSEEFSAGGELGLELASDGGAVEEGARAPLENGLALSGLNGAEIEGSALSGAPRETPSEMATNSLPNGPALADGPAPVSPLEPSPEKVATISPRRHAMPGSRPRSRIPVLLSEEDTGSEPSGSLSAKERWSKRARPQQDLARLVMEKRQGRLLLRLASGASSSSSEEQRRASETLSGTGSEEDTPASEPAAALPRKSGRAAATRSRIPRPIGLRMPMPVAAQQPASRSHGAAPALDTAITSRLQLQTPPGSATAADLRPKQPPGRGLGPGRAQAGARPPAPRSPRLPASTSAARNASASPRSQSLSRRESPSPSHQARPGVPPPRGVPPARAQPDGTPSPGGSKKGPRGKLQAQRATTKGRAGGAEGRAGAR
measuredQuantity: remaining activity at 1 µM (%)

- Oc1ncnc2c1c(-c1ccccc1)cn2-c1ccccc1 [F1386-0303]: 102
- O=C1Nc2ccc(I)cc2/C1=C/c1cc(Br)c(O)c(Br)c1 [GW5074]: 62
- O=C1Cc2c([nH]c3ccc(Br)cc23)-c2ccccc2N1 [Kenpaullone]: 88
- COCCOc1ccc(-c2cn(-c3ccccc3)c3nc[nH]c(=O)c23)cc1 [DMX-5804]: 113

* * *

# remaining activity at 1 µM per record follows
target: TIE2 (Homo sapiens, UniProt Q02763); construct: lines 1-140) and Reaction Biology; test: Dundee kinase panel; type: biochemical; settings: read-out: residual activity
Sequence (Q02763 23-1124): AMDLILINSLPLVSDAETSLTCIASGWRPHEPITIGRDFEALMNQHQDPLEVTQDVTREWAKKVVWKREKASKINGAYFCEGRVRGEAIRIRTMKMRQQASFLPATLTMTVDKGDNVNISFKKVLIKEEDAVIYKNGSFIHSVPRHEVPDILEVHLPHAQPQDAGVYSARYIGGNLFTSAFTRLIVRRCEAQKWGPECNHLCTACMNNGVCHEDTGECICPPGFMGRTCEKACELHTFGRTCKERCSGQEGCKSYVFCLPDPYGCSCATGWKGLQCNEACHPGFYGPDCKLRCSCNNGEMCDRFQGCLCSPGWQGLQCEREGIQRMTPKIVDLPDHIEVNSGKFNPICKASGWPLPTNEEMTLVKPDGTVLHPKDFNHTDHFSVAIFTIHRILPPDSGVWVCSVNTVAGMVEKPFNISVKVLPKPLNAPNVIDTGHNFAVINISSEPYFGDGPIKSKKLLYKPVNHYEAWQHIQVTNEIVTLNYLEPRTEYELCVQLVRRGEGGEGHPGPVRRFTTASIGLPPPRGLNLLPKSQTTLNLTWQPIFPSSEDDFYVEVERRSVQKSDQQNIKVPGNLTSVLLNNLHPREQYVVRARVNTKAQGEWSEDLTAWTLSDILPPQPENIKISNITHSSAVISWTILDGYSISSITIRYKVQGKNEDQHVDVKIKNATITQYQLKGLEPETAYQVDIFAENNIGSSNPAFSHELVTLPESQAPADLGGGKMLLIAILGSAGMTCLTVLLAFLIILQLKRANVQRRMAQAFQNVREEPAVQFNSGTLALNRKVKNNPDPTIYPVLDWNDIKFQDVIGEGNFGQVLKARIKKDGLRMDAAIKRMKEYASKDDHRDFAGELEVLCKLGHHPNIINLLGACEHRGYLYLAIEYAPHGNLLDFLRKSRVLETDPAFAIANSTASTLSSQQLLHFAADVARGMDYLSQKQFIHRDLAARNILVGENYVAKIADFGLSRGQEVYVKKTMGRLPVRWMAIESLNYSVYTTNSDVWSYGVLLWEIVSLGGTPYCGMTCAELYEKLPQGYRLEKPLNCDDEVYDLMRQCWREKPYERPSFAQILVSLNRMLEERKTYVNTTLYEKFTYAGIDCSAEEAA
measuredQuantity: remaining activity at 1 µM

* O=C1Nc2ccc(I)cc2/C1=C/c1cc(Br)c(O)c(Br)c1 | 98%
* COCCOc1ccc(-c2cn(-c3ccccc3)c3nc[nH]c(=O)c23)cc1 | 101%
* O=C1Cc2c([nH]c3ccc(Br)cc23)-c2ccccc2N1 | 98%
* Oc1ncnc2c1c(-c1ccccc1)cn2-c1ccccc1 | 114%

* * *

Target: EPH-B2 (Homo sapiens, UniProt P29323)
Construct: lines 1-140) and Reaction Biology
Sequence (P29323 19-1055): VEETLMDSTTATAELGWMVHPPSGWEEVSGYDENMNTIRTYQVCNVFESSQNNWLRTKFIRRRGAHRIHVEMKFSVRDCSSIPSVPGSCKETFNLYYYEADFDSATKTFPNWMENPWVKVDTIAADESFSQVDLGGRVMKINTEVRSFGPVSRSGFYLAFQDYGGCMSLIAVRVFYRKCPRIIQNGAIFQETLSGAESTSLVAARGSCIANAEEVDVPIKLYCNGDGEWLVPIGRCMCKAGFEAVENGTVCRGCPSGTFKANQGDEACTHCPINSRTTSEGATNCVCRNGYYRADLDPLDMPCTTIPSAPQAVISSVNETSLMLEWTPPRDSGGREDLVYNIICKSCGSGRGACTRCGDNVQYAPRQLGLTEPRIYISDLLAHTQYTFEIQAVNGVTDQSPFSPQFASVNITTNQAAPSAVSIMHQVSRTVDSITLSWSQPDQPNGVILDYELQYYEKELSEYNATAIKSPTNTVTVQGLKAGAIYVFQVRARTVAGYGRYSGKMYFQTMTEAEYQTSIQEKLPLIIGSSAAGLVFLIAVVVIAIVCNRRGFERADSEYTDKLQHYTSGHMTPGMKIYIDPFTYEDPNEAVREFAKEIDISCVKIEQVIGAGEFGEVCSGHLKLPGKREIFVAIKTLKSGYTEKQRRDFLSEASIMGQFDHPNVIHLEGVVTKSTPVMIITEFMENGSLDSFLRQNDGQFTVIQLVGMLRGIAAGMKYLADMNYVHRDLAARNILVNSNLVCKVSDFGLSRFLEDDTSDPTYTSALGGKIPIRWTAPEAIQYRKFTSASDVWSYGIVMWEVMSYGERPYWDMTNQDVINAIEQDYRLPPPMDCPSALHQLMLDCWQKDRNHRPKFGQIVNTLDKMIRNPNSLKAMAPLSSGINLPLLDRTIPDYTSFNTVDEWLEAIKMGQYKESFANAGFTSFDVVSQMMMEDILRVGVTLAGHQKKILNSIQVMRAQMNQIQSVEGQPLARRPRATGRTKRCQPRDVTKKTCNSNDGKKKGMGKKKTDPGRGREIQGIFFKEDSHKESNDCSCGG
Assay: Dundee kinase panel
Format: biochemical
Details: read-out: residual activity
measuredQuantity: remaining activity at 1 µM (%)

* Oc1ncnc2c1c(-c1ccccc1)cn2-c1ccccc1 | 78
* O=C1Cc2c([nH]c3ccc(Br)cc23)-c2ccccc2N1 | 99
* COCCOc1ccc(-c2cn(-c3ccccc3)c3nc[nH]c(=O)c23)cc1 | 102
* O=C1Nc2ccc(I)cc2/C1=C/c1cc(Br)c(O)c(Br)c1 | 94
